Biological target: feline FcRn complex (FcRn-α subunit and β-microglobulin) (feline)
Assay: SPR (Biacore), FcRn on SA chip, pH 7.4
quantityKind: Kd (nM)
Answers are plain numbers, in nM.

query: Recorded Kd for feline IgG1a mutant ID No. 285: S252Y, Q311W, L314K, S434Y (antibody, part only; not given: Variable domains, not shown: another chain or arm of the molecule) constant: ASTTAPSVFPLAPSCGTTSGATVALACLVLGYFPEPVTVSWNSGALTSGVHTFPAVLQASGLYSLSSMVTVPSSRWLSDTFTCNVAHPPSNTKVDKTVRKTDHPPGPKPCDCPKCPPPEMLGGPSIFIFPPKPKDTLYISRTPEVTCLVVDLGPDDSDVQITWFVDNTQVYTAKTSPREEQFNSTYRVVSVLPILHWDWKKGKEFKCKVNSKSLPSPIERTISKAKGQPHEPQVYVLPPAQEELSRNKVSVTCLIKSFHPPDIAVEWEITGQPEPENNYRTTPPQLDSDGTYFVYSKLSVDRSHWQRGNTYTCSVSHEALHYHHTQKSLTQSPGK , please?
result: 1730
